# Assay System: human orexin-2 receptor (Homo sapiens, UniProt O43614)
# Sequence (O43614 whole entry): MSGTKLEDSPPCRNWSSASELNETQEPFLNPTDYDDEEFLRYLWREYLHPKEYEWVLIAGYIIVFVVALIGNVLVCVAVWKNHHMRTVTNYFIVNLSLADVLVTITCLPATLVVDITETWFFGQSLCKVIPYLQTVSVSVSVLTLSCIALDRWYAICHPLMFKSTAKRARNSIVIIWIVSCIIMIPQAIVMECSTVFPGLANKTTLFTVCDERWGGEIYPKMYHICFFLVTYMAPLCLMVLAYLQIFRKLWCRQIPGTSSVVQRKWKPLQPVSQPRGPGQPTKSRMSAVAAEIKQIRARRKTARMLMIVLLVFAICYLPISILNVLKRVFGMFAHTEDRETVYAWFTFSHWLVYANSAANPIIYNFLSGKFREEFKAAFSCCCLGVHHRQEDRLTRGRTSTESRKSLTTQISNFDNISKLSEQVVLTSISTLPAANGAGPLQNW
# Test Summary: Intracellular calcium measurements (FLIPR), orexin receptor antagonistic activity, OX2
# Condition Description: CHO cells expressing human orexin-2 receptor, 10 nM orexin-A as agonist
# Experimental: The orexin receptor antagonistic activity of the compounds of formula (I) is determined in accordance with the following experimental method. Intracellular Calcium Measurements: […] Within the Fluorescent Imaging Plate Reader (FLIPR, Molecular Devices), antagonists are added to the plate in a volume of 50 μl, incubated for 20 min and finally 100 μl of agonist is added. […]
Can you tell me pIC50 for the items I'm about to list?
The meaning of pIC50 here: minus log10 of the concentration in molar units.

Param item = Cc1ccc(C(=O)N2C[C@H]3C[C@H]3[C@H]2CNC(=O)c2c3c(cc4c2OCC4)OCC3)c(-c2cccc(F)c2)c1 (relative stereo) [Compound 318] ; retrieve measured pIC50.
6.94

Lookup Cc1cccc(-c2sc(C)nc2C(=O)N2C[C@H]3C[C@H]3[C@H]2CNC(=O)c2cccc3c2CCCO3)c1 (relative stereo) [Example 182]
6.71

Now consider Cc1cccc(-c2sc(C)nc2C(=O)N2C[C@H]3C[C@H]3[C@H]2CNC(=O)c2cccc3c2C=CCO3)c1 (relative stereo) [Example 178] and answer again.
7.48

And what about the compound Cc1cccc(-c2sc(CCCO)nc2C(=O)N2C[C@H]3C[C@H]3[C@H]2CNC(=O)c2c(C)nc3sccn23)c1 (relative stereo) [Example 389] ?
7.77

Record: O=C(NC[C@@H]1[C@@H]2C[C@@H]2CN1C(=O)c1cccc2c1-c1ccccc1C2)c1cccc2occc12 (relative stereo) [Example 31]
7.29

Would you kindly repeat that for Cc1cccc(-c2sc(C)nc2C(=O)N2C[C@H]3C[C@H]3[C@H]2CNC(=O)c2cccc(C(F)(F)F)c2)c1 (relative stereo) [Example 125] ?
6.99

Next entry: Cc1cccc(-c2sc(N)nc2C(=O)N2C[C@H]3C[C@H]3[C@H]2CNC(=O)c2scc3c2OCCO3)c1 (relative stereo) [Example 284]
7.82

And for Cc1nc2sccn2c1C(=O)NC[C@@H]1[C@@H]2C[C@@H]2CN1S(=O)(=O)c1ccccc1OC(F)(F)F (relative stereo) [Example 3] ?
6.46

Okay, and Cc1nc(C(=O)N2C[C@H]3C[C@H]3[C@H]2CNC(=O)c2cccc3c2OCCO3)c(-c2cccc(C#N)c2)s1 (relative stereo) [Example 336] ?
7.32

Param item: O=C(NC[C@@H]1[C@@H]2C[C@@H]2CN1C(=O)c1ccccc1-c1ccc(Cl)cc1)c1cccc2occc12 (relative stereo) [Example 42]
7.30

Entry to check: Cc1nc(C(=O)N2C[C@H]3C[C@H]3[C@H]2CNC(=O)c2cnc3ccccn23)c(-c2cccc(Cl)c2)s1 (relative stereo) [Example 203]
7.04

Then Cc1cccc(-c2sc(C)nc2C(=O)N2C[C@H]3C[C@H]3[C@H]2CNC(=O)c2ccccc2N2CCOCC2)c1 (relative stereo) [Example 154] ?
6.63
